Test system: KB-3-1
method: Cell survival assay (SRB), KB-3-1
Format: cell-based, human
experimental.conditions: Homo sapiens, KB 3-1, KB-3-1 cells (paclitaxel-sensitive parent); read-out: In vitro IC50 (nM) KB-3-1
I'd be grateful if you could share measured IC50 for these entries.

Query block: Any idea what its IC50 is? The compound is CN[C@H](C(=O)N[C@H](C(=O)N(C)[C@H](/C=C(\C)C(=O)O)C(C)C)C(C)(C)C)C(C)(C)c1cccc(F)c1
Result block: 0.997 nM

Query block: Any idea what its IC50 is? The compound is CN[C@H](C(=O)N[C@H](C(=O)N(C)[C@H](/C=C(\C)C(=O)O)C(C)C)C(C)(C)C)C(C)(C)c1cccc(C(F)(F)F)c1
Result block: 0.647 nM

Query block: Any idea what its IC50 is? The compound is CN[C@H](C(=O)N[C@H](C(=O)N(C)[C@H](/C=C(\C)C(=O)O)C(C)C)C(C)(C)C)C(C)(C)c1csc2ccccc12
Result block: 4.5 nM

Query block: Any idea what its IC50 is? The compound is C=CC(C)(C)[C@H](NC)C(=O)N[C@H](C(=O)N(C)[C@H](/C=C(\C)C(=O)O)C(C)C)C(C)(C)C
Result block: 136 nM

Query block: Any idea what its IC50 is? The compound is CN[C@H](C(=O)N[C@H](C(=O)N(C)[C@H](/C=C(\C)C(=O)NCCc1ccccc1)C(C)C)C(C)(C)C)C(C)(C)c1ccccc1
Result block: 163 nM

Query block: Any idea what its IC50 is? The compound is CCCCCC(C)(C)[C@H](NC)C(=O)N[C@H](C(=O)N(C)[C@H](/C=C(\C)C(=O)O)C(C)C)C(C)(C)C
Result block: 8.7 nM

Query block: Any idea what its IC50 is? The compound is CN[C@H](C(=O)N[C@H](C(=O)N(C)[C@H](/C=C(\C)C(=O)O)C(C)C)C(C)(C)C)C(C)(C)c1cccc(O)c1
Result block: 7 nM

Query block: Any idea what its IC50 is? The compound is CN[C@H](C(=O)N[C@H](C(=O)N(C)[C@H](/C=C(\C)C(=O)N[C@@H](CCSC)C(=O)O)C(C)C)C(C)(C)C)C(C)(C)c1ccccc1
Result block: 131 nM

Query block: Any idea what its IC50 is? The compound is CN[C@H](C(=O)N[C@H](C(=O)N(C)[C@H](/C=C(\C)C(=O)O)C(C)C)C(C)(C)C)C(C)(C)c1ccc(OC)cc1
Result block: 1.4 nM

Query block: Any idea what its IC50 is? The compound is CCOC(=O)/C(C)=C/[C@H](C(C)C)N(C)C(=O)[C@@H](NC(=O)[C@@H](NC)C(C)(C)c1ccccc1OC)C(C)(C)C
Result block: 126 nM

Query block: Any idea what its IC50 is? The compound is CN[C@H](C(=O)N[C@H](C(=O)N[C@H](/C=C(\C)C(=O)O)C(C)C)C(C)(C)C)C(C)(C)c1ccccc1.O=C(O)C(F)(F)F
Result block: 43.1 nM

Query block: Any idea what its IC50 is? The compound is CN[C@H](C(=O)N[C@H](C(=O)N(C)[C@H](/C=C(\C)C(=O)O)Cc1ccccc1)C(C)(C)C)C(C)(C)c1ccccc1
Result block: 479 nM
